Collected pEC50 values appear next to each entry.
- measurement_target: PRMT5-MEP50 enzyme complex (Homo sapiens, UniProt O14744)
- Construct: Full-length (FL)-PRMT5-MEP50 enzyme complex (recombinant proteins from baculovirus-transfected Sf21 cells: FL-PRMT5; MW=73837 kDa and FL-MEP50; MW=38614); made in house; host or cells: baculovirus-transfected Sf21 cells
- Sequence (O14744 whole entry): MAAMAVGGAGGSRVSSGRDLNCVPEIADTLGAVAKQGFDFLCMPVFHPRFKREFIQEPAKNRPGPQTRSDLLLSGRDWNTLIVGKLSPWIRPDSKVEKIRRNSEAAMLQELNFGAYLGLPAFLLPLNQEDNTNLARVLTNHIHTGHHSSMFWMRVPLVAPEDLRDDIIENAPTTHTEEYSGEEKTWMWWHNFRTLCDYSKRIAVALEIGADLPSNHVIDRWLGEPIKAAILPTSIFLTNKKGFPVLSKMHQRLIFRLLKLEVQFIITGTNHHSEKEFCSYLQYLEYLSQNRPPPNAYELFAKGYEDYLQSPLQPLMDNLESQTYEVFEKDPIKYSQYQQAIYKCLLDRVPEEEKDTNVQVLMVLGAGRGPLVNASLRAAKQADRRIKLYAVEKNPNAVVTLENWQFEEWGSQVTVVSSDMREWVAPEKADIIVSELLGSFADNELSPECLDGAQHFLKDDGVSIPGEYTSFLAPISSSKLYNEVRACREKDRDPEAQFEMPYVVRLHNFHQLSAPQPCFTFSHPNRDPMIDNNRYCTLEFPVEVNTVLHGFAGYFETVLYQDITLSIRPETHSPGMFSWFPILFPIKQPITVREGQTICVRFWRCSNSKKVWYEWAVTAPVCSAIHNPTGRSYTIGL
- Sequence (Q9BQA1 whole entry partner): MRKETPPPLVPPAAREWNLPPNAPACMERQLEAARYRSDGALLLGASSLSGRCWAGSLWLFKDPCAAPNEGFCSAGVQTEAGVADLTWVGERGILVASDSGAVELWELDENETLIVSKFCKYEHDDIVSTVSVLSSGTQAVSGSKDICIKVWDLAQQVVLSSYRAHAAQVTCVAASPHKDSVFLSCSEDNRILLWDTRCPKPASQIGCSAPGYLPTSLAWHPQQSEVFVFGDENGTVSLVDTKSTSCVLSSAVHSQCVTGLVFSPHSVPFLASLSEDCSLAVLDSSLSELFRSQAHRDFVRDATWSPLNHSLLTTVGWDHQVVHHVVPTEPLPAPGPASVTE
- test_description: PRMT5-MEP50 Enzyme Methylation Assay (Version B)
- Format: biochemical
- test_parameters: first of two EC50s: 7 parameters biphasic model; read-out: Enzyme Methylation Assay Version B (EC50_1)
- Procedure: PRMT5-MEP50 Enzyme Methylation Assay (Version B) PRMT5-MEP50 biochemical assay is a direct measurement of the methylation activity of the enzyme complex on a short peptide substrate derived from the N-terminus of H4 histone. Methylation experiment was performed with recombinant PRMT5-MEP50 protein complex. The assessment of inhibitory effect (EC50) of small molecules was measured by the effectiveness of the compounds to inhibit this reaction. […]
pEC50: −log10 of the molar value.

{"columns": ["molecule", "pEC50"],
 "data": [
  ["CCOc1cc(C(=O)N2C3CCC2COC3)ccc1C(=O)N1CC[C@@H](N2CCc3ccccc3C2)[C@H](O)C1", "~7.42"],
  ["Cc1ccc2c(c1)CCN([C@H]1CCN(C(=O)c3ccc(OCC(F)(F)F)nc3)C[C@@H]1O)C2", "~8.00"]
]}

get_value(item= CC(=O)N1CCC(Nc2cc(C(=O)N3CCC(N4CCc5ccccc5C4)C(O)C3C)ccn2)CC1 (single isomer, unassigned) [Example 21] , readout=pEC50) returns ~7.25

Input O=C(c1ccc(C(=O)N2C3CCC2COC3)cc1)N1CC[C@@H](N2CCc3c(F)cccc3C2)[C@H](O)C1 . Output pEC50: ~6.40

====

- measurement_target: PRMT5-MEP50 enzyme complex (Homo sapiens, UniProt O14744)
- Construct: Full-length (FL)-PRMT5-MEP50 enzyme complex (recombinant proteins from baculovirus-transfected Sf21 cells: FL-PRMT5; MW=73837 kDa and FL-MEP50; MW=38614); made in house; host or cells: baculovirus-transfected Sf21 cells
- test_description: PRMT5-MEP50 Enzyme Methylation Assay (Version B)
- Format: biochemical
- test_parameters: first of two EC50s: 7 parameters biphasic model; read-out: Enzyme Methylation Assay Version B (EC50_1)
observable: EC50

Below, 5 compounds whose answers are already recorded.
{"columns": ["compound", "EC50"],
 "data": [
  ["O=C(c1ccn(CC(F)(F)F)c(=O)c1)N1CC[C@H](N2CCc3ccccc3C2)[C@@H](O)C1", "~30 nM"],
  ["O=C(c1ccc(C(=O)N2C3CCC2COC3)cc1)N1CC[C@H](N2CCc3c(F)cccc3C2)[C@@H](O)C1", "~87 nM"],
  ["CC(=O)N1CCC(Nc2nccc(C(=O)N3CC[C@@H](N4CCc5ccccc5C4)[C@H](O)C3)c2F)C(F)(F)C1 (single isomer, unassigned) [Example 17]", "~191 nM"],
  ["CCC1Oc2ccc(C(=O)N3CC[C@@H](N4CCc5ccccc5C4)[C@H](O)C3)cc2NC1=O (single isomer, unassigned) [Example 13]", "~14 nM"],
  ["CC(=O)N1CCC(Nc2cc(C(=O)N3CC[C@@H](N4CCc5ccccc5C4)[C@H](O)C3)ccn2)C(F)(F)C1 (single isomer, unassigned) [Example 8]", "~571 nM"]
]}

Documented EC50 of CC(C)(C#N)c1ccc(C(=O)N2CC[C@H](N3CCc4ccccc4C3)[C@@H](O)C2)cn1 (single isomer, unassigned) : ~110 nM

For CC1OC(=O)Nc2cc(C(=O)N3CC[C@H](N4CCc5ccccc5C4)[C@@H](O)C3)ccc21 (single isomer, unassigned) [Example 94] the compound record lists EC50 as ~291 nM

// field: EC50; key: O=C(c1cc2n(n1)CCN(CC(F)(F)F)C2)N1CC[C@H](N2CCc3ccccc3C2)[C@@H](O)C1 ; value = ~76 nM

Taken from patent US12595248B2.
